READOUT: melting point (°C)
Numbers only, in °C.

COMPOUND	EXPERIMENTAL VALUE
Cc1ccc(Cl)c(CO)c1F	57

Batch request: melting point per item, same order as input.
1. O=C(Cl)c1ccc(I)cc1
2. COC(=O)C1(C(=O)OC)Cc2c(C)c(C)c(C)c(C)c2C(=O)O1
3. CNC(C)(C)C(=O)O
4. COCCOCCOCCOC

63
166
300
-45

* * *

Please provide measured melting point for the entries that follow.
Answers are plain numbers, in °C.

Worked examples, 3 compounds total:
COMPOUND	melting point (°C)
COc1ccc(C(c2ccc(OC)cc2)C(Cl)(Cl)Cl)cc1	87
CCc1c(CC)c(CC)c(CC)c(CC)c1CC	129
NCCCCCCC(=O)O	195

Value sought for every listed compound: melting point.
1. Cc1nc(-c2ccccc2)c(C)s1
2. O=C(O)CCCCC1CCSS1 (stereo unspecified)

28
60.5

* * *

READOUT: melting point (°C)
Give bare numbers, in °C.

Would you please look over these solved cases?
SMI	melting point (°C)
COc1ccc2c(c1)c1c3n2CCN(C)C3=NCC1	164
O=[N+]([O-])c1ccc(Oc2ccccc2)cc1	58
Nc1nc(N)c2nc[nH]c2n1	302
NNc1ccc(S(=O)(=O)O)cc1	286
Cn1c(=O)c(C2=NNC(=O)C2=Cc2ccccn2)c(O)c2ccccc21	292

Please supply melting point for each of the following items, keeping them in order.
1. CC(C)c1ccc(O)c(O)c1
2. O=[N+]([O-])c1cccnc1
3. O=C(O)CC(O)(c1ccccc1)c1ccccc1
4. COC(=O)[C@H]1C[C@]2(Sc3ccccc3)O[C@@]1(c1ccc(OC)cc1)c1c2cc(Cl)nc1Cl

1: 78; 2: 40; 3: 210; 4: 118

* * *

So I've got a bunch of molecules here, and I need their melting point values.
Answers are plain numbers, in °C.

MOLECULE	MEASUREMENT UNIT	melting point
CC(C)C(C)C(=O)O (configuration not stated)	°C	-1.5

For each listed entry, give its melting point.
1. CC1CC2C3CCC4=CC(=O)C=CC4(C)C3C(=O)CC2(C)C1(O)C(=O)CO (configuration not stated)
2. C=C1CCC1

202
-135

* * *

READOUT: melting point (°C)
One number for each entry, in °C.

Below, each entry is followed by its recorded melting point result.
COMPOUND	melting point / °C
O=Cc1cc(Br)cc(OC(F)(F)F)c1O	46
CC1CCCS1 (configuration not stated)	-101
NC(=O)CC(N)C(=O)O (configuration not stated)	234
Cc1ccc(N=C=O)cc1[N+](=O)[O-]	51
O=C1OC(c2ccc(OP(=O)(O)O)cc2)(c2ccc(OP(=O)(O)O)cc2)c2ccccc21	198

Please go through the list and note melting point for each compound.
1. CC1(C)CC(C)(c2ccc(O)cc2)c2ccccc2O1 (configuration not stated)
2. c1ccc(CP(c2ccccc2)c2ccccc2)cc1
3. CC(C)(C)OC(=O)N1CCCC(=O)C1
4. COc1cccc(C=O)c1OC
5. CCOC(=O)c1c(SC)nn(C(=O)c2ccc([N+](=O)[O-])cc2)c1N
6. CC1=Cc2ccccc2C1

1. 140
2. 75
3. 38
4. 52
5. 158
6. 80

For every item in the list below, what is its measured melting point?
1. N#Cc1ccc(N=C=S)cc1
2. CCCCCCCC(C)CC (configuration not stated)
3. O=C(O)C(O)C(O)C(O)C(O)C(=O)O (configuration not stated)
4. c1ccc2nn(C3CCCCC3)nc2c1
5. CC1=Nc2ccc3ccccc3c2C1(C)C

120
-92.9
230
46.5
117

Items follow; give melting point for each.
1. O=C1CCc2ccc(O)cc2N1
2. Cc1ccc(-c2onc(C(=O)c3ccc(Cl)cc3)c2S(=O)(=O)c2ccccc2)cc1
3. OC(c1ccc(Cl)cc1)(c1cncnc1)c1ccccc1Cl (configuration not stated)
4. CCOc1ccc(-c2nnc3n2NC(c2ccccc2)S3)cc1 (configuration not stated)
5. O=C1C=CC(=Nc2ccc(O)cc2)C=C1
6. CC(C)(C)C(C)(C)O
7. CC(=O)C(C#N)c1ccccc1[N+](=O)[O-] (configuration not stated)
8. O=C1C=C(NCCc2ccccc2)C(=O)c2ccccc21

1. 232
2. 149
3. 118
4. 118
5. 160
6. 17
7. 72
8. 141

For every record below, what is its melting point?
1. O=C(O)c1cc(-c2cccs2)on1
2. C#CC1(O)c2ccccc2-c2ccccc21
3. O=c1c2ccccc2nc2n1CCc1c-2[nH]c2ccccc12
4. CC(C)CC(NC(=O)C(O)C(N)Cc1ccccc1)C(=O)O (configuration not stated)
5. C#CCOc1ccc(N)cc1C(=O)NCCCC

168
110
260
233
84

Provenance of the data: a melting point compilation (Tetko et al.)
